- method_notes: Therapeutic Index measured as the ratio of CyD50 (rhino) / ED99 (rhino) values.
- measurement_parameters: read-out: Therapeutic index 99
Output TRUE for selectivity ratio not less than 2; output FALSE otherwise.

Previously resolved entries follow.
COc1c(-c2ccc(O)cc2)oc2ccc(C(C)C)cc2c1=O    FALSE
COc1c(-c2ccc(O)cc2)oc2cc(O)c(C)c(C)c2c1=O    TRUE
COc1c(-c2ccc(O)cc2)oc2cc(C)ccc2c1=O    FALSE

Input: Hello, I need to know if "COc1c(-c2ccc(O)cc2)oc2cc(O)cc(C)c2c1=O" has measured selectivity ratio not below 2. Thanks!
Output: TRUE

Input: Also "COc1c(-c2ccc(O)cc2)oc2cc(O)ccc2c1=O" ?
Output: FALSE

Input: Also "COc1cc(O)c2c(=O)c(OC)c(-c3ccc(O)cc3)oc2c1" ?
Output: TRUE

Input: Also "COc1c(-c2ccc(O)cc2)oc2cc(Cl)ccc2c1=O" ?
Output: TRUE

Input: Also "COc1ccc2c(=O)c(OC)c(-c3ccc(O)cc3)oc2c1" ?
Output: TRUE

Input: Also "COc1cc2oc(-c3ccc(O)cc3)c(OC)c(=O)c2c(O)c1OC" ?
Output: FALSE

Input: Also "COc1c(-c2ccc(O)cc2)oc2ccc(O)cc2c1=O" ?
Output: FALSE

###

- method_notes: Cytotoxic dose at which 50% growth of normal cells is inhibited
- Format: cell-based
- measurement_parameters: chlorocebus sabaeus, Vero cells; read-out: CyD50
result_type: CC50

COc1ccc(-c2oc3ccc(OC)cc3c(=O)c2OC)cc1    100 µg/mL
CCOc1c(-c2ccc(O)cc2)oc2cc(C)ccc2c1=O    25 µg/mL

Input: Give its CC50 value. Item: "COc1cc(O)c2c(=O)c(OC)c(-c3ccc(O)c(O)c3)oc2c1OC"
Output: > 5 µg/mL

Input: Also "COc1c(-c2ccc(O)cc2)oc2cc(O)ccc2c1=O" ?
Output: 15 µg/mL

Input: Also "COc1cc(C)c2c(=O)c(OC)c(-c3ccc(O)cc3)oc2c1" ?
Output: 50 µg/mL

Input: Also "COc1c(-c2ccc(O)cc2)oc2cc(O)c(C)c(C)c2c1=O" ?
Output: > 100 µg/mL

###

- method_notes: Therapeutic Index measured as the ratio of CyD50(polio) / ED99(polio) values
- Type: organism-based
- measurement_parameters: enterovirus c; read-out: Therapeutic index 99
Collected selectivity ratio values appear next to each entry.
Please respond with just the number, no unit label.

Record excerpt, results attached:
COc1cc(O)c2c(=O)c(OC)c(-c3ccc(O)c(OC)c3)oc2c1    10
COc1c(-c2ccc(O)cc2)oc2cccc(O)c2c1=O    50
COc1c(-c2ccc(O)cc2)oc2cc(O)ccc2c1=O    15

Input: Give its selectivity ratio value. Item: "COc1cc(O)c2c(=O)c(OC)c(-c3ccc(O)c(O)c3)oc2c1OC"
Output: 25

Input: Also "COc1cc(C)c2c(=O)c(OC)c(-c3ccc(O)cc3)oc2c1" ?
Output: 50

Input: Also COc1c(-c2ccc(O)cc2)oc2cc(O)cc(O)c2c1=O [ISOKAEMPFERIDE] ?
Output: 50

Input: Also "COc1c(-c2ccc(O)cc2)oc2ccccc2c1=O" ?
Output: 1.7

Input: Also "COc1c(-c2ccc(O)cc2)oc2cc(F)ccc2c1=O" ?
Output: 2.5

Input: Also "COc1cc(O)c2c(=O)c(OC)c(-c3ccc(O)c(O)c3)oc2c1" ?
Output: 33.3

Input: Also "COc1ccc(-c2oc3ccc(OC)cc3c(=O)c2OC)cc1" ?
Output: 2

Input: Also "COc1c(-c2ccc(O)cc2)oc2cccc(OC)c2c1=O" ?
Output: 15

Input: Also "COc1cc(OC)c2c(=O)c(OC)c(-c3ccc(O)cc3)oc2c1" ?
Output: 10

Input: Also "COc1c(-c2ccc(O)cc2)oc2cc(Cl)ccc2c1=O" ?
Output: 14.3

Input: Also "COc1c(O)cc2oc(-c3ccc(O)cc3)c(OC)c(=O)c2c1O" ?
Output: 50

###

- method_notes: Cytotoxic dose at which 50% growth of normal cells is inhibited
- Assay type: cell-based
- measurement_parameters: chlorocebus sabaeus, Vero cells; read-out: CyD50
Collected CC50 values appear next to each entry.

Record excerpt, results attached:
COc1c(-c2ccc(O)cc2)oc2ccc(Cl)cc2c1=O    100 µg/mL
COc1c(-c2ccc(O)cc2)oc2ccc(C(C)C)cc2c1=O    10 µg/mL
COc1c(-c2ccc(O)cc2)oc2cc(O)cc(C)c2c1=O    15 µg/mL
COc1cc(O)c2c(=O)c(OC)c(-c3ccc(O)c(OC)c3)oc2c1    25 µg/mL
COc1c(-c2ccc(O)cc2)oc2ccc(N)cc2c1=O    10 µg/mL
COc1ccc2oc(-c3ccc(O)cc3)c(OC)c(=O)c2c1    200 µg/mL
COc1ccc2c(=O)c(OC)c(-c3ccc(O)cc3)oc2c1    > 50 µg/mL
COc1ccc(-c2oc3c(OC)cccc3c(=O)c2OC)cc1    > 200 µg/mL

Input: Give its CC50 value. Item: "COc1c(-c2ccc(O)c(O)c2)oc2c(OC)c(O)cc(O)c2c1=O"
Output: 10 µg/mL

Input: Also "COc1ccc(-c2oc3ccc(Cl)cc3c(=O)c2OC)cc1" ?
Output: 20 µg/mL

Input: Also "COc1c(-c2ccc(Cl)cc2)oc2cc(Cl)ccc2c1=O" ?
Output: 20 µg/mL

Input: Also "COc1c(-c2ccc(O)cc2)oc2cccc(OC)c2c1=O" ?
Output: 150 µg/mL

Input: Also "COc1cc(O)c2c(=O)c(OC)c(-c3ccc(O)cc3)oc2c1OC" ?
Output: > 100 µg/mL

Input: Also "COc1c(-c2ccc(O)cc2)oc2cc(Cl)ccc2c1=O" ?
Output: 100 µg/mL

Input: Also COc1c(-c2ccc(O)cc2)oc2cc(O)cc(O)c2c1=O [ISOKAEMPFERIDE] ?
Output: 10 µg/mL

Input: Also "COc1c(-c2ccc(O)cc2)oc2cc(C)ccc2c1=O" ?
Output: 25 µg/mL

Input: Also "COc1c(-c2ccc(O)cc2)oc2c(C)cc(Cl)cc2c1=O" ?
Output: 50 µg/mL

Input: Also "COc1ccc(-c2oc3cc(Cl)ccc3c(=O)c2OC)cc1" ?
Output: > 200 µg/mL

Input: Also "COc1ccc(-c2oc3cc(O)cc(O)c3c(=O)c2OC)cc1" ?
Output: 50 µg/mL

###

- method_notes: Therapeutic Index measured as the ratio of CyD50(polio) / ED99(polio) values
- Type: organism-based
- measurement_parameters: enterovirus c; read-out: Therapeutic index 99
Output satisfied for selectivity ratio not less than 20; output not satisfied otherwise.

Previously resolved entries follow.
CCOc1c(-c2ccc(O)cc2)oc2cc(C)ccc2c1=O    not satisfied
COc1c(-c2ccc(O)cc2)oc2cc(O)c(C)c(C)c2c1=O    satisfied
COc1c(-c2ccc(O)cc2)oc2cc(Br)ccc2c1=O    not satisfied
COc1ccc2c(=O)c(OC)c(-c3ccc(O)cc3)oc2c1    satisfied

Field: next compound
Input: Hello, I need to know if COc1c(-c2ccc(O)c(O)c2)oc2cc(O)cc(O)c2c1=O [3-O-METHYLQUERCETIN] has measured selectivity ratio not below 20. Thanks!
Output: not satisfied

###

- method_notes: Therapeutic Index measured as the ratio of CyD50(polio) / ED99(polio) values
- Assay type: organism-based
- measurement_parameters: enterovirus c; read-out: Therapeutic index 99
result_type: selectivity ratio
Please respond with just the number, no unit label.

Input: Give its selectivity ratio value. Item: "COc1c(-c2ccc(O)cc2)oc2ccc(C)cc2c1=O"
Output: 15

Input: Also "COc1c(-c2ccc(O)cc2)oc2cc(O)cc(C)c2c1=O" ?
Output: 150

Input: Also "COc1c(-c2ccc(O)cc2)oc2cc(C)ccc2c1=O" ?
Output: 12.5

Input: Also "COc1c(-c2ccc(O)c(O)c2)oc2c(OC)c(O)cc(O)c2c1=O" ?
Output: 6.6

Input: Also "COc1c(-c2ccc(O)cc2)oc2ccc(Cl)cc2c1=O" ?
Output: 16.7

Input: Also "COc1cc2oc(-c3ccc(O)cc3)c(OC)c(=O)c2c(O)c1OC" ?
Output: 500

Input: Also "COc1ccc(-c2oc3cc(O)cc(O)c3c(=O)c2OC)cc1" ?
Output: 10

Input: Also "COc1c(-c2ccc(O)cc2)oc2ccc(O)cc2c1=O" ?
Output: 1.5

Value source: ChEMBL document CHEMBL1125251
